All values here come from paper doi:10.1101/2025.07.07.663444v1.

Consider compounds characterized by their pKd with CaFun30-c334 (Candida albicans).
Sequence (A0A1D8PTJ0 764-1097): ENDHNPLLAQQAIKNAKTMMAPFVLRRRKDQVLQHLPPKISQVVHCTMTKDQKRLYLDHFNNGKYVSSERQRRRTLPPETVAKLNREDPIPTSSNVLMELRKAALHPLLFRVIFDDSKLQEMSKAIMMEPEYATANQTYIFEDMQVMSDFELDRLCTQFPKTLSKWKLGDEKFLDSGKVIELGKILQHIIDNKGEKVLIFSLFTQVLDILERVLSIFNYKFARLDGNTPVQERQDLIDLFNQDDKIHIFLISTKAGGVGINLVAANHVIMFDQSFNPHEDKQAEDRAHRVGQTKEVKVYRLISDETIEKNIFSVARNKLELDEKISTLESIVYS
Numbers only, as −log10 of the molar value.

COMPOUND	pKd
Cc1ccc(NC(=O)CSc2nc(C(F)(F)F)cc(=O)[nH]2)cc1Cl [F2716-0594]	4.60
CCc1cc2c(=O)c(-c3ccc(F)cc3)c(C)oc2cc1OCc1ccccc1 [F1067-0218]	4.74

Shifting focus to the compound that follows.
-- ask Name the reported pKd value associated with the compound Cc1nnc2sc(SCC(=O)Nc3ccc(Cl)cc3)nn2c1=O [F1853-0039]
-- reply 6.06
